Tested on: RAW264.7
TEST_NAME: Antiinflammatory activity in mouse RAW264.7 cells assessed as inhibition of LPS-induced NO production incubated for 24 hrs by Griess reagent based assay
Assay type: functional, cell-based
TEST_PARAMETERS: RAW264.7, 24 h
The entries below come with measured IC50 values attached.
State just the number; it will be interpreted in µM.

The following molecules have reported results that may help.
> print(dat)
                                   molecule  endpoint.result
1  C=C1C(=O)O[C@@H]2C[C@]3(C)[C@@H](CC[C@@H](C)OC(=O)CCCCCCCCC(O)CCCCCCO)[C@@H]3C[C@H]12 (stereo partly drawn)             9.87
2  C=C1C(=O)O[C@@H]2C[C@]3(C)[C@@H](CC[C@@H](C)OC(=O)CCCC[C@@H](O)/C=C/[C@@H](O)[C@H](O)CCCCCCCC)[C@@H]3C[C@H]12             11.6
3  C=C1C(=O)O[C@@H]2C[C@]3(C)[C@@H](CC[C@@H](C)OC(=O)CCCCCCC[C@H]4OC(=O)C[C@H]4O)[C@@H]3C[C@H]12             15.1

Given item `C=C1C(=O)O[C@@H]2C[C@]3(C)[C@@H](CC[C@@H](C)OC(=O)CCCC[C@H](O)/C=C/[C@@H](O)[C@H](O)CCCCCCCC)[C@@H]3C[C@H]12` , the value recorded as its IC50 is 11.8

Given item `C=C1C(=O)O[C@@H]2C[C@]3(C)[C@@H](CC[C@@H](C)OC(C)=O)[C@@H]3C[C@H]12` , the value recorded as its IC50 is 5.64

Given item `C[C@@H]1C[C@H]2[C@@H]3CCC4=CC(=O)C=C[C@]4(C)[C@@]3(F)[C@@H](O)C[C@]2(C)[C@@]1(O)C(=O)CO` , the value recorded as its IC50 is 8.52
